Numbers sourced from patent US7776862B2.

biological target: human CXCR3 (N-delta 4) (Homo sapiens); construct: CD8 leader; Flag tag; expressed in transfected cells; membranes used; assay: Human CXCR3 (N-delta 4) scintillation proximity assay (SPA), [125I] IP-10 binding; conditions: IC50 rating; Ba/F3-hCXCR3 (N-delta 4) membranes, 25 pM [125I] IP-10
pIC50: −log10 of the molar value.
Task for the reader: assign each of the following compounds its reported pIC50.

Exercise: # lookup: pIC50 of CC[C@H]1CN(c2ncc(CNC(=O)NC3CC3)cc2Cl)CCN1C1CCN(Cc2ccc(Cl)cc2F)CC1 [compound 372]
Solution: > 7.60

Exercise: # lookup: pIC50 of O=C(NCc1ccc(F)cc1)c1cnc(N2CCN(C3CCN(Cc4ccc(Cl)cc4Cl)CC3)CC2)c(Cl)c1 [compound 7]
Solution: < 7.00

Exercise: # lookup: pIC50 of CC1CN(C2CCN(Cc3ccc(Cl)cc3)CC2)CCN1c1ncc(C(=O)NCc2ccc(Cl)c(Cl)c2)cc1Cl (stereo not shown) [compound 122]
Solution: 7.00 to 7.60

Exercise: # lookup: pIC50 of O=C(NCc1ccc(F)c(F)c1)c1cnc(N2CCN(C3CCN(C(=O)c4ccc(Cl)c(Cl)c4)CC3)CC2)c(Cl)c1 [compound 351]
Solution: < 7.00

Exercise: # lookup: pIC50 of CCNC(=O)c1cnc(N2CCN(C3CCN(Cc4ccc(Cl)cc4)C(C)C3)[C@@H](CC)C2)c(Cl)c1 (stereo partly shown) [compound 220]
Solution: > 7.60

Exercise: # lookup: pIC50 of O=C(NCC1CCCCC1)c1cnc(N2CCN(C3CCN(Cc4ccc(Cl)cc4)CC3)CC2)c(Br)c1 [compound 194]
Solution: 7.00 to 7.60

Exercise: # lookup: pIC50 of CNC(=O)c1cnc(N2CCN(C3(C)CCN(Cc4ccc(Cl)cc4)CC3)[C@@H](C)C2)c(Cl)c1 [compound 205]
Solution: < 7.00

----------
Task for the reader: assign each of the following compounds its reported IC50.
Target: human CXCR3 (N-delta 4) (Homo sapiens, UniProt P49682)
Construct: CD8 leader; Flag tag; expressed in transfected cells; membranes used
Sequence (P49682 5-368 limits assumed): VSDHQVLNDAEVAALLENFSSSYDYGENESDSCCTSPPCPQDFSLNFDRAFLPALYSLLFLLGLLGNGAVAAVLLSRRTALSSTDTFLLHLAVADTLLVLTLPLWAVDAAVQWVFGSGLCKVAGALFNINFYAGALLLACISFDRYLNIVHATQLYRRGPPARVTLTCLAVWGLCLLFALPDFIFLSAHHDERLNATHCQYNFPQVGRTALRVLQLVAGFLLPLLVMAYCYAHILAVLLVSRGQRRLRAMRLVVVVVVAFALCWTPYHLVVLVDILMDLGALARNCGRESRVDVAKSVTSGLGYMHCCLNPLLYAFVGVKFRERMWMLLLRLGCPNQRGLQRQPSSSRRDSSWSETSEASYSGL
Test: Human CXCR3 (N-delta 4) scintillation proximity assay (SPA), [125I] IP-10 binding
Conditions: IC50 rating; Ba/F3-hCXCR3 (N-delta 4) membranes, 25 pM [125I] IP-10

Exercise: # lookup: IC50 of CC1(N2CCN(c3ncc(C(=O)NCc4ccc(F)c(F)c4)cc3Cl)CC2)CCN(Cc2ccc(Cl)cc2)CC1 [compound 207]
Solution: > 100 nM

Exercise: # lookup: IC50 of C[C@H]1CN(c2ncc(C(=O)NCc3ccc(F)c(F)c3)cc2Cl)CCN1C1CCN(CCC(=O)c2ccc(Cl)cc2)CC1 [compound 327]
Solution: > 100 nM

Exercise: # lookup: IC50 of O=C(NCc1cccc(Cl)c1)c1cnc(N2CCN(C3CCN(Cc4ccc(F)c(F)c4)CC3)CC2)c(Cl)c1 [compound 118]
Solution: 25 to 100 nM

Exercise: # lookup: IC50 of O=C(NCc1ccc(F)cc1F)c1cnc(N2CCN(C3CCN(Cc4ccc(F)c(F)c4)CC3)CC2)c(Cl)c1 [compound 132]
Solution: 25 to 100 nM

Exercise: # lookup: IC50 of CNC(=O)c1cnc(N2CCN(C3CCN(Cc4c(C)cccc4C)CC3)[C@@H](C)C2)c(Cl)c1 [compound 360]
Solution: > 100 nM

Exercise: # lookup: IC50 of O=C(NCc1ccc(Cl)cc1Cl)c1cnc(N2CCN(C3CCN(Cc4ccc(Cl)c(F)c4)CC3)CC2)c(Cl)c1 [compound 133]
Solution: 25 to 100 nM

Exercise: # lookup: IC50 of CCOC(CNC(=N)c1cnc(N2CCN(C3CCN(C(=O)c4ccc(Cl)cc4)CC3)[C@@H](CC)C2)c(Cl)c1)OCC [compound 453]
Solution: > 100 nM
